SYSTEM NAME: T1, h1x antigen (E3-S5-pore segment fused to the C-terminal coiled coil domain of Kv10.1 and to thioredoxin) (Homo sapiens, UniProt O95259)
T1 construct: Kv10.1 voltage-gated potassium channel, E3 segment (extracellular linker between S5 and S6 transmembrane segments, extending to the pore loop); numbers count on: Homo sapiens Kv10.1, isoform 1 (UniProt O95259-2); Kv10.1 voltage-gated potassium channel, C-terminal tetramerizing coiled-coil (C-terminal assembly domain); The coiled coil was added with the aim to induce tetramerization; the …
T1 sequence (O95259 400-477): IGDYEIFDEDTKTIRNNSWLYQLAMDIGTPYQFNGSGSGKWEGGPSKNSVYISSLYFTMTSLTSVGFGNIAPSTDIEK
TEST: ELISA; plates coated overnight with 500 ng h1x in TBS, blocked with 2% BSA; VHHs (E. coli culture supernatants) incubated 2 h at different concentrations; detected by mouse anti-His antibody and peroxidase-conjugated anti-mouse; apparent affinities
PROTOCOL CONDITIONS: one partner purified
ASSAY READOUT: Kd (nM)

# BINDER, ASSAY READOUT, REPORTED MEASUREMENT
data = [
    ("anti-Kv10.1 nanobody A12 (VHH, From a phage display library of a llama immunised with h1x; His tag comes from the phage display vector; source: E. coli TG1TR, culture supernatants (ELISA)) VHH: RCKLQESGGGLVQAGGSLRLSCTAAGRTFSSYILAWFRQAPGEERKFVAGITGNGETGYSNSVKGRFTISRDNAKNTVLLQMNNLKPEDTAVYYCAAHSRSTYYYRGPDLYDYWGQGTQVTVSS", "Kd", 343),
    ("anti-Kv10.1 nanobody VHH-D9 (VHH, a model in PDB format is also in the Supplementary Information; Short CDR3 (six residues); His tag comes from the phage display vector; The preparation used for SPR is not described; source: E. coli TG1TR, culture supernatants (ELISA)) VHH: QVQLVQSGGGLVQAGGSLRLSCAASGRTFSNYAMYWFRQTPGKDREFVASISYSGTFTDYAGSVKGRFTISRDNAKNRLYLQMNSLKPEDTAVYYCSLDRLYWGQGTQVTVSS", "Kd", 11),
    ("anti-Kv10.1 nanobody G4 (VHH, From a phage display library of a llama immunised with h1x; His tag comes from the phage display vector; source: E. coli TG1TR, culture supernatants (ELISA)) VHH: QVQLVQSGGGLVQAGGSRRLSCTASGRTFSSYILGWFRQAPGEERKFVAAITGNGGTGYADSVKGRFTISRDNAKNTVLLQMNSLKPEDTAVYYCAAHSRSSYYYRGPDLYDYWGQGTQVTVSS", "Kd", 943),
]

The values you see were collected from paper PMC7246340.
